Data origin, for the record: patent US10100010B1

Reported inhibition at 10 µM values for a set of molecules
# MEASURED_ON: 5-HT2A (Homo sapiens, UniProt P28223)
# Sequence (P28223 whole entry): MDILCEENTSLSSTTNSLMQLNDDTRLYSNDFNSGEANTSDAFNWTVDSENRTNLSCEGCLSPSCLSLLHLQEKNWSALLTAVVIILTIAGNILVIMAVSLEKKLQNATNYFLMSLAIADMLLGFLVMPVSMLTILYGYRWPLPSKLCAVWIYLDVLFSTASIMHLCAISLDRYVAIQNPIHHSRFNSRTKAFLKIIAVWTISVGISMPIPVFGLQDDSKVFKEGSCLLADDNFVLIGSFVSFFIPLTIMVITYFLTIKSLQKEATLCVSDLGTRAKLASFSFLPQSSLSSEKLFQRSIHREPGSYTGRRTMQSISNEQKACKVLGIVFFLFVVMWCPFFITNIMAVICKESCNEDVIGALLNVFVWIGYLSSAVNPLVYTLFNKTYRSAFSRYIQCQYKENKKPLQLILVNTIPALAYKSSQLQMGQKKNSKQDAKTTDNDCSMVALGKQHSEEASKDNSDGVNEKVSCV
# ASSAY_METHOD_TEXT: GPCR Calcium Flux assay (FLIPR tetra, Eurofins), 5-HT2A
# Format: cell-based
# EXPERIMENTAL_SETUP: single concentration of 10 uM; read-out: inhibition rate (%) 5-HT2A
Counter-ions that a name gives are not always drawn.
METRIC_NAME: inhibition at 10 µM (%)

> print(dat)
                                   molecule          metric.name  readout.unit  endpoint.value
1  CNCc1cn(S(=O)(=O)c2cccc(F)c2)c(-c2ccc(F)cc2F)c1OC.Cl [Example 8, hydrochloride]  inhibition at 10 µM             %             102
2  CNCc1cn(S(=O)(=O)c2cccc(C(F)(F)F)c2)c(-c2c(F)cccc2F)c1OC [Example 15, hydrochloride]  inhibition at 10 µM             %            30.1
3  CNCc1cn(S(=O)(=O)c2cccc(OC)c2)c(-c2c(F)ccc(F)c2F)c1OC [Example 30, hydrochloride]  inhibition at 10 µM             %             100
4  CNCc1cn(S(=O)(=O)c2cccc(Cl)c2)c(-c2c(F)ccc(F)c2F)c1OC [Example 28, hydrochloride]  inhibition at 10 µM             %            97.6

====

# MEASURED_ON: 5-HT2A (Homo sapiens)
# ASSAY_METHOD_TEXT: GPCR Calcium Flux assay (FLIPR tetra, Eurofins), 5-HT2A
# Type: cell-based
# EXPERIMENTAL_SETUP: single concentration of 10 uM; read-out: inhibition rate (%) 5-HT2A
Structures can show the parent of a compound that is named as a salt.
METRIC_NAME: inhibition at 10 µM (%)

> print(dat)
                                   compound          metric.name  endpoint.value
1  CNCc1cn(S(=O)(=O)c2cccc(OC)c2)c(-c2cc(F)ccc2F)c1OC [Example 33, hydrochloride]  inhibition at 10 µM            96.7
2  CNCc1cn(S(=O)(=O)c2cccc(OC)c2)c(-c2ccc(F)cc2F)c1OC [Example 11, hydrochloride]  inhibition at 10 µM             102
3  CNCc1cn(S(=O)(=O)c2cccc(C(F)(F)F)c2)c(-c2ccc(Cl)cc2F)c1OC [Example 7, hydrochloride]  inhibition at 10 µM            42.3
4  CNCc1cn(S(=O)(=O)c2ccc(F)c(F)c2)c(-c2c(F)cc(F)cc2F)c1OC [Example 26, hydrochloride]  inhibition at 10 µM              99
5  CNCc1cn(S(=O)(=O)c2cccc(F)c2)c(-c2c(F)cc(F)cc2F)c1OC.Cl [Example 22, hydrochloride]  inhibition at 10 µM             102
6  CNCc1cn(S(=O)(=O)c2cccc(OC)c2)c(-c2c(F)cccc2F)c1OC [Example 17, hydrochloride]  inhibition at 10 µM             102
7  CNCc1cn(S(=O)(=O)c2cccc(C(F)(F)F)c2)c(-c2ccc(F)cc2F)c1OC [Example 9, hydrochloride]  inhibition at 10 µM            61.1

====

Reported IC50 values for a set of compounds
# MEASURED_ON: 5-HT2A (Homo sapiens)
# ASSAY_METHOD_TEXT: GPCR Calcium Flux assay (FLIPR tetra, Eurofins), 5-HT2A
# EXPERIMENTAL_SETUP: 8 concentrations 10 to 0.0006 uM; read-out: 50% inhibitory concentration (IC50) 5-HT2A
Counter-ions that a name gives are not always drawn.
METRIC_NAME: IC50 (nM)

> print(dat)
                                    compound  endpoint.value
 1  CNCc1cn(S(=O)(=O)c2cccc(OC(F)F)c2)c(-c2ccccc2F)c1OC [Example 4, hydrochloride]             850
 2  CNCc1cn(S(=O)(=O)c2cccc(C(F)(F)F)c2)c(-c2c(F)cc(F)cc2F)c1OC [Example 24, hydrochloride]              62
 3  CNCc1cn(S(=O)(=O)c2cccc(OC)c2)c(-c2cc(F)ccc2F)c1OC [Example 33, hydrochloride]            1700
 4  CNCc1cn(S(=O)(=O)c2cccc(F)c2)c(-c2ccc(F)cc2F)c1OC.Cl [Example 8, hydrochloride]             110
 5  CNCc1cn(S(=O)(=O)c2cccc(Cl)c2)c(-c2ccc(Cl)cc2F)c1OC [Example 6, hydrochloride]             160
 6  CNCc1cn(S(=O)(=O)c2cccc(F)c2)c(-c2c(F)cc(F)cc2F)c1OC.Cl [Example 22, hydrochloride]              33
 7  CNCc1cn(S(=O)(=O)c2cccc(OC)c2)c(-c2c(F)cccc2F)c1OC [Example 17, hydrochloride]            2200
 8  CNCc1cn(S(=O)(=O)c2ccc(F)c(Cl)c2)c(-c2c(F)cccc2F)c1OC [Example 18, hydrochloride]             210
 9  CNCc1cn(S(=O)(=O)c2ccc(F)c(F)c2)c(-c2c(F)cccc2F)c1OC [Example 19, hydrochloride]             120
10  CNCc1cn(S(=O)(=O)c2cccc(C)c2)c(-c2c(F)cccc2F)c1OC [Example 16, fumarate]              58
11  CNCc1cn(S(=O)(=O)c2cccc(OC)c2)c(-c2ccc(F)cc2F)c1OC [Example 11, hydrochloride]             200
12  CNCc1cn(S(=O)(=O)c2cccc(F)c2)c(-c2c(F)cccc2F)c1OC [Example 13, hydrochloride]              76
13  CNCc1cn(S(=O)(=O)c2cccc(Cl)c2)c(-c2c(F)cccc2F)c1OC [Example 14, hydrochloride]             210
14  CNCc1cn(S(=O)(=O)c2cccc(F)c2)c(-c2cc(F)ccc2F)c1OC [Example 31, hydrochloride]              42
15  CNCc1cn(S(=O)(=O)c2cccc(C)c2)c(-c2ccc(F)cc2F)c1OC [Example 10, hydrochloride]             360
16  CNCc1cn(S(=O)(=O)c2cccc(Cl)c2)c(-c2c(F)ccc(F)c2F)c1OC [Example 28, hydrochloride]              67
17  CNCc1cn(S(=O)(=O)c2cccc(OC)c2)c(-c2ccccc2F)c1OC [Example 3, hydrochloride]             180
18  CNCc1cn(S(=O)(=O)c2cccc(Cl)c2)c(-c2ccccc2F)c1OC [Example 1, hydrochloride]             250

====

# MEASURED_ON: M1 (Homo sapiens)
# Sequence (P11229 1-460): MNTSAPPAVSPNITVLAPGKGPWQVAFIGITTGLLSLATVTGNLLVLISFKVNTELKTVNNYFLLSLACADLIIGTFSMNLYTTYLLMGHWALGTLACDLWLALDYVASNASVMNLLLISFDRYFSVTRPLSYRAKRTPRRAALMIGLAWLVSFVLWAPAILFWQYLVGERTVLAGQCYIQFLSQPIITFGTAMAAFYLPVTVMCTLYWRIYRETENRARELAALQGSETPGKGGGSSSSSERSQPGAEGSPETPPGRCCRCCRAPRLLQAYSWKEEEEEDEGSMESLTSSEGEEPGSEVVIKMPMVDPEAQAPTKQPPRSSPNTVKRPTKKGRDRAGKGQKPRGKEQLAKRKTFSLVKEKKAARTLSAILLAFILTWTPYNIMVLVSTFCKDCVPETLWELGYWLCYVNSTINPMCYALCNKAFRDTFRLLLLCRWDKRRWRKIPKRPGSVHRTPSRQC
# ASSAY_METHOD_TEXT: GPCR Calcium Flux assay (FLIPR tetra, Eurofins), M1
# Assay type: cell-based
# EXPERIMENTAL_SETUP: single concentration of 10 uM; read-out: inhibition rate (%) M1
Structures can show the parent of a compound that is named as a salt.
METRIC_NAME: inhibition at 10 µM (%)

> print(dat)
                                    compound  endpoint.value
 1  CNCc1cn(S(=O)(=O)c2cccc(OC)c2)c(-c2c(F)cccc2F)c1OC [Example 17, hydrochloride]            85.2
 2  CNCc1cn(S(=O)(=O)c2cccc(C(F)(F)F)c2)c(-c2c(F)ccc(F)c2F)c1OC [Example 29, hydrochloride]            68.4
 3  CNCc1cn(S(=O)(=O)c2ccc(F)c(Cl)c2)c(-c2c(F)cccc2F)c1OC [Example 18, hydrochloride]            91.2
 4  CNCc1cn(S(=O)(=O)c2cccc(C(F)(F)F)c2)c(-c2cc(F)ccc2F)c1OC [Example 32, hydrochloride]            52.6
 5  CNCc1cn(S(=O)(=O)c2cccc(OC)c2)c(-c2ccccc2F)c1OC [Example 3, hydrochloride]              87
 6  CNCc1cn(S(=O)(=O)c2cccc(OC(F)F)c2)c(-c2ccccc2F)c1OC [Example 4, hydrochloride]            55.8
 7  CNCc1cn(S(=O)(=O)c2cccc(F)c2)c(-c2c(F)cccc2Cl)c1OC [Example 20, hydrochloride]             103
 8  CNCc1cn(S(=O)(=O)c2cccc(F)c2)c(-c2c(F)cc(F)cc2F)c1OC.Cl [Example 22, hydrochloride]              98
 9  CNCc1cn(S(=O)(=O)c2cccc(C(F)(F)F)c2)c(-c2ccc(Cl)cc2F)c1OC [Example 7, hydrochloride]            65.6
10  CNCc1cn(S(=O)(=O)c2cccc(OC)c2)c(-c2cc(F)ccc2F)c1OC [Example 33, hydrochloride]            81.5
11  CNCc1cn(S(=O)(=O)c2cccc(Cl)c2)c(-c2ccccc2F)c1OC [Example 1, hydrochloride]            99.6
12  CNCc1cn(S(=O)(=O)c2cccc(F)c2)c(-c2c(F)cccc2F)c1OC [Example 13, hydrochloride]             100
13  CNCc1cn(S(=O)(=O)c2cccc(OC)c2)c(-c2ccccc2Cl)c1OC [Example 5, hydrochloride]            93.7
14  CNCc1cn(S(=O)(=O)c2cccc(C(F)(F)F)c2)c(-c2ccccc2F)c1OC [Example 2, hydrochloride]            92.7
15  CNCc1cn(S(=O)(=O)c2cccc(C(F)(F)F)c2)c(-c2ccc(F)cc2F)c1OC [Example 9, hydrochloride]            74.7
